target: human CCR8 (human, UniProt P51685 1-355); experiment: cell-based or functional assay
endpoint-label: hCCL1 (100 nM) residual response, Protocol #3, mAb 0.05 µg/mL
Please give the number followed by its unit.

Worked set:
binder="3-79 (antibody, human IgG1, kappa, V domains shown, humanized, human IgG1 kappa) VH: EVQLLESGGGLVQPGGSLRLSCAASGFTFNAYAMNWVRQAPGKGLEWVARIRSKSNDYATYYGDSVKGRFTISRDNSKNTLYLQMNSLRAEDTAVYYCVRGREAYYRYDGGYYAMDVWGQGTTVTVSS VL: DIVMTQSPLSLPVTPGEPASISCRSSKSLLHSNGNTYLYWFLQKPGQSPQLLIYRVSNLASGVPDRFSGSGSGTDFTLKISRVEAEDVGVYYCMQHREYPFTFGQGTKLEIKR" recorded_result=110%
binder="3-80 (antibody, human IgG1, kappa, V domains shown, humanized, human IgG1 kappa) VH: QVQLVQSGPEVVKPGASVKVSCKTSGYTFTEYTIHWVRQAPGQSLEWVGGINPNNGNTRYDQKFQGRVTITRDKSASTAYMELRSLTSEDTAVYYCARVARSSGSGPYAMDYWGQGTTVTVSS VL: DVVMTQSPLSLPVTLGDQASISCRCSQSLLHTNGDTYLHWYLQRPGQSPRLLIYKVSNRFSGVPDRFSGSGSGTDFTLKISRVEAEDVGVYFCSQSTHVPYTFGGGTKVEIKR" recorded_result=86%

# input for lookup
QUERY: So what's the measured hCCL1 (100 nM) residual response, Protocol #3, mAb 0.05 µg/mL for this one? 3-33 (antibody, V domains shown) VH: EVQLQQSGPELVKPGASVKISCKTSGYTFTEYTIHWVKQSHGESLEWVGGINPNNGNTRYDQKFKGKATLTIDKSSSPAYMELRSLTSEDSAVYYCARVARSSGSGPYAMDYWGQGTSVTVSS VL: DVVMTQTPLSLPVSLGDQASISCRCTQSLLHTNGDTYLHWYLQKPGQSPKLLIYKVSNRFSGVPDRFSGSGSGTDFTLKISRVEAEDLGVYFCSQSTHVPYTFGGGTKLEIK
RESULT: 80%

Data origin: patent US20260234276A1
